Test system: MDA-MB-231 (human mammary breast adenocarcinoma)
ASSAY NOTES: MTT antiproliferative assay, 48 h
Format: cell-based
EXPERIMENTAL CONTEXT: Homo sapiens, MDA-MB-231, 48-hour exposition, read-out: Cytotoxicity, IC50, µM MDA-MB-231
So basically: is IC50 under 60 µM? Then Y. Not under? Then N.

Completed entries (count: 8):
- COMPOUND: "Cc1ccc(S(=O)(=O)N2CC2C#N)cc1 (stereo not drawn)"
  TESTED TARGET: "MDA-MB-231 (human mammary breast adenocarcinoma)"
  CATEGORY LABEL: "N"
- COMPOUND: "COC(=O)C1CN1S(=O)(=O)c1cccc2c(N(C)C)cccc12 (stereo not drawn)"
  TESTED TARGET: "MDA-MB-231 (human mammary breast adenocarcinoma)"
  CATEGORY LABEL: "N"
- COMPOUND: "COC(=O)[C@@H]1CN1S(=O)(=O)c1cccc2cc(N(C)C)ccc12 (stereo partly drawn)"
  TESTED TARGET: "MDA-MB-231 (human mammary breast adenocarcinoma)"
  CATEGORY LABEL: "Y"
- COMPOUND: "CN(C)C(=O)C1CN1S(=O)(=O)c1ccc(N(C)C)cc1 (stereo not drawn)"
  TESTED TARGET: "MDA-MB-231 (human mammary breast adenocarcinoma)"
  CATEGORY LABEL: "Y"
- COMPOUND: "COC(=O)[C@H]1CN1S(=O)(=O)c1cccc2cc(N(C)C)ccc12 (stereo partly drawn)"
  TESTED TARGET: "MDA-MB-231 (human mammary breast adenocarcinoma)"
  CATEGORY LABEL: "Y"
- COMPOUND: "COC(=O)C1CN1S(=O)(=O)c1ccc(NC(C)=O)cc1 (stereo not drawn)"
  TESTED TARGET: "MDA-MB-231 (human mammary breast adenocarcinoma)"
  CATEGORY LABEL: "N"
- COMPOUND: "COC(=O)C1CN1S(=O)(=O)c1ccc2cc(N(C)C)ccc2c1 (stereo not drawn)"
  TESTED TARGET: "MDA-MB-231 (human mammary breast adenocarcinoma)"
  CATEGORY LABEL: "Y"
- COMPOUND: "NC(=O)C1CN1S(=O)(=O)c1cccnc1 (stereo not drawn)"
  TESTED TARGET: "MDA-MB-231 (human mammary breast adenocarcinoma)"
  CATEGORY LABEL: "Y"

Attention now shifts to the item below.
Answer whether the compound CCCCc1ccc(S(=O)(=O)N2CC2C=O)cc1 (stereo not drawn) has IC50 strictly less than 60 µM
Y
